Hi there, I'd appreciate the recorded binding inhibition rate (%) for every entry that follows.
Target: human somatostatin receptor 2 (Homo sapiens)
Construct: expressed in transfected cells; host or cells: CHO cells, clone SSTR2-HS5-9 (membrane fraction)
Sequence (P30874 whole entry): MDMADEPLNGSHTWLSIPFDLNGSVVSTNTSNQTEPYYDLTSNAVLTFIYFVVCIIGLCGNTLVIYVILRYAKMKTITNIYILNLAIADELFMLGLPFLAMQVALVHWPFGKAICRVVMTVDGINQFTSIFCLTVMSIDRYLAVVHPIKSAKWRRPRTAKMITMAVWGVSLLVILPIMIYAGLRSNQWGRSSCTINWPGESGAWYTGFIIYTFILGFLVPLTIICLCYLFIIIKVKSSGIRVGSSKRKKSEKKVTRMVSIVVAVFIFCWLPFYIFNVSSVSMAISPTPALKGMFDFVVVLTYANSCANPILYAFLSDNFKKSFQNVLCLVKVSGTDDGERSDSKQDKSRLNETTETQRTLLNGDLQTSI
Assay: Measurement of the binding inhibition rate of 125I-somatostatin
Details: membrane fraction of SSTR2-HS5-9 CHO cells; 125I-somatostatin-14; 25° C., 60 minutes; compound concentration not given
Procedure: Measurement of the Binding Inhibition Rate of ^125I-Somatostatin The receptor binding inhibition rate (%) of the subject compound was calculated using human.somatostatin receptor 2 expressing CHO cells and SSTR2-HS5-9 described in WO02/16350. First, SSTR2-HS5-9 (1×10^9) was floated on a phosphate buffered saline supplemented with 5 mM EDTA (PBS-EDTA) and centrifuged. […]
Express it in %; write the number only.

Task item: Return reported binding inhibition rate (%) for target or system human somatostatin receptor 2 (Homo sapiens), item `CCOc1ccc(CN(C)C)cc1NC(=O)[C@H](NC(=O)N1CCC(c2ccccc2)CC1)[C@@H](C)c1c[nH]c2ccccc12` .
Reply: 100

Task item: Write down the reported binding inhibition rate (%) (system: human somatostatin receptor 2 (Homo sapiens)) of `CCOc1ccc(CN(C)C)cc1NC(=O)[C@H](NC(=O)N1CCN(c2ccc(F)cc2)CC1)[C@@H](C)c1c[nH]c2ccccc12`
Reply: 96

Task item: Enter measured binding inhibition rate (%), system human somatostatin receptor 2 (Homo sapiens), for the compound shown: `C[C@@H](c1c[nH]c2ccccc12)[C@@H](NC(=O)N1CCC(Oc2ccc(F)cc2)CC1)C(=O)Nc1cccc(CN(C)C)c1`
Reply: 100

Task item: Please report the measured binding inhibition rate (%) for `C[C@@H](c1c[nH]c2ccccc12)[C@@H](NC(=O)N1CCC(c2ccccc2)CC1)C(=O)Nc1cccc(CN(C)C)c1` tested on human somatostatin receptor 2 (Homo sapiens).
Reply: 98
